system: HepG2; experiment: Antiproliferative activity against human HepG2 cells after 48 hrs by MTT assay; type: functional, cell-based; settings: HepG2, 48 h
MEASURE_NAME: IC50

In: Find the recorded IC50 belonging to C[C@]12CC[C@H](O)C[C@H]1CC[C@@H]1[C@@H]2[C@H](O)C(=O)[C@]2(C)[C@@H](c3ccc(=O)oc3)CC[C@]12O and report it.
Out: 0.1 to 10 nM

###

test: Cytotoxic activity against human AC16 cells assessed as cell detachment from substratum at 1 uM after 24 hrs by phase contrast microscopic method; type: cell-based
MEASURE_NAME: Activity

Cc1ccc2c(=O)n([C@@H](Cc3ccccc3)C(=O)O[C@H]3CC[C@@]4(C)[C@H](CC[C@@H]5[C@@H]4[C@H](O)C(=O)[C@]4(C)[C@@H](c6ccc(=O)oc6)CC[C@]54O)C3)[se]c2c1 | Non-Toxic
C[C@]12CC[C@H](O)C[C@H]1CC[C@@H]1[C@@H]2[C@H](O)C(=O)[C@]2(C)[C@@H](c3ccc(=O)oc3)CC[C@]12O | Toxic
C[C@]12CC[C@H](OC(=O)[C@H](Cc3ccccc3)n3[se]c4ccccc4c3=O)C[C@H]1CC[C@@H]1[C@@H]2[C@H](O)C(=O)[C@]2(C)[C@@H](c3ccc(=O)oc3)CC[C@]12O | Non-Toxic
